Entry source: the supplement of paper PMC9112550

System: Escherichia coli TOP10;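 further: peptides expressed intracellularly from a pBAD plasmid library in pooled LB shake-flask culture, induced with 0.3% L-arabinose, DNA abundance read by NGS, three biological replicates, DESeq2 with apeglm shrinkage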
PROCEDURE_DETAILS: shrunken log2 fold change of peptide-encoding DNA abundance (4.5 h post-induction vs induction); higher = less antimicrobial activity (less host growth inhibition)
EXPERIMENTAL_PARAMETERS: time post-induction: 4.5 h; library: site-saturation at positions 5, 18, 19, 20
Would you mind telling me the reported shrunken log2 fold change of each entry?

Answer with reported shrunken log2 fold change of RRIRLRPPRLPRPRPRPCVEPRP -0.124

Answer with reported shrunken log2 fold change of RRIRRRPPRLPRPRPRPQWWPRP 0.297

Answer with reported shrunken log2 fold change of RRIRYRPPRLPRPRPRPVWWPRP 0.113

Answer with reported shrunken log2 fold change of RRIRQRPPRLPRPRPRPVVSPRP -0.179

Answer with reported shrunken log2 fold change of RRIRPRPPRLPRPRPRPGEMPRP 0.294

Answer with reported shrunken log2 fold change of RRIRERPPRLPRPRPRPYHDPRP -0.114

Answer with reported shrunken log2 fold change of RRIRYRPPRLPRPRPRPITMPRP -1.13

Answer with reported shrunken log2 fold change of RRIRIRPPRLPRPRPRPGYAPRP -0.192

Answer with reported shrunken log2 fold change of RRIRIRPPRLPRPRPRPAYEPRP -0.277

Answer with reported shrunken log2 fold change of RRIRYRPPRLPRPRPRPENWPRP -0.223

Answer with reported shrunken log2 fold change of RRIRARPPRLPRPRPRPMPEPRP 0.18

Answer with reported shrunken log2 fold change of RRIRARPPRLPRPRPRPGPKPRP 0.421

Answer with reported shrunken log2 fold change of RRIRARPPRLPRPRPRPGAWPRP 0.259

Answer with reported shrunken log2 fold change of RRIRYRPPRLPRPRPRPGFSPRP -0.0944

Answer with reported shrunken log2 fold change of RRIRGRPPRLPRPRPRPPMHPRP 0.95

Answer with reported shrunken log2 fold change of RRIRHRPPRLPRPRPRPQKCPRP -0.0302

Answer with reported shrunken log2 fold change of RRIRNRPPRLPRPRPRPHYTPRP -0.0895

Answer with reported shrunken log2 fold change of RRIRVRPPRLPRPRPRPPVWPRP 0.312

Answer with reported shrunken log2 fold change of RRIRVRPPRLPRPRPRPHNTPRP -0.353

Answer with reported shrunken log2 fold change of RRIRSRPPRLPRPRPRPINIPRP -0.589

Answer with reported shrunken log2 fold change of RRIRNRPPRLPRPRPRPCLRPRP -0.0159

Answer with reported shrunken log2 fold change of RRIRARPPRLPRPRPRPVHTPRP 0.375

Answer with reported shrunken log2 fold change of RRIRNRPPRLPRPRPRPGPYPRP -0.00784

Answer with reported shrunken log2 fold change of RRIRLRPPRLPRPRPRPTKSPRP 0.127

Answer with reported shrunken log2 fold change of RRIRWRPPRLPRPRPRPRDKPRP 0.347

Answer with reported shrunken log2 fold change of RRIRFRPPRLPRPRPRPPRCPRP 0.612

Answer with reported shrunken log2 fold change of RRIRVRPPRLPRPRPRPQTWPRP -0.148

Answer with reported shrunken log2 fold change of RRIRHRPPRLPRPRPRPKTFPRP -0.45

Answer with reported shrunken log2 fold change of RRIRDRPPRLPRPRPRPMCIPRP -0.121

Answer with reported shrunken log2 fold change of RRIRPRPPRLPRPRPRPYSGPRP -0.524

Answer with reported shrunken log2 fold change of RRIRFRPPRLPRPRPRPFGRPRP -0.199

Answer with reported shrunken log2 fold change of RRIRVRPPRLPRPRPRPWPPPRP 0.46

Answer with reported shrunken log2 fold change of RRIRRRPPRLPRPRPRPTLHPRP 0.534

Answer with reported shrunken log2 fold change of RRIRWRPPRLPRPRPRPQPWPRP 0.363

Answer with reported shrunken log2 fold change of RRIRIRPPRLPRPRPRPIIPPRP -0.072

Answer with reported shrunken log2 fold change of RRIRQRPPRLPRPRPRPARSPRP 0.0407

Answer with reported shrunken log2 fold change of RRIRERPPRLPRPRPRPGPLPRP -0.127

Answer with reported shrunken log2 fold change of RRIRFRPPRLPRPRPRPKLAPRP 0.559

Answer with reported shrunken log2 fold change of RRIRFRPPRLPRPRPRPLLQPRP 0.0394

Answer with reported shrunken log2 fold change of RRIRMRPPRLPRPRPRPVVDPRP 0.0138

Answer with reported shrunken log2 fold change of RRIRGRPPRLPRPRPRPTQEPRP 1.38

Answer with reported shrunken log2 fold change of RRIRHRPPRLPRPRPRPFPKPRP 0.0904

Answer with reported shrunken log2 fold change of RRIRGRPPRLPRPRPRPEDRPRP 0.23

Answer with reported shrunken log2 fold change of RRIRLRPPRLPRPRPRPRISPRP 0.0807

Answer with reported shrunken log2 fold change of RRIRPRPPRLPRPRPRPWPPPRP 0.504

Answer with reported shrunken log2 fold change of RRIRERPPRLPRPRPRPMQTPRP 0.0432

Answer with reported shrunken log2 fold change of RRIRCRPPRLPRPRPRPDEGPRP -0.00232

Answer with reported shrunken log2 fold change of RRIRNRPPRLPRPRPRPLEYPRP -0.816

Answer with reported shrunken log2 fold change of RRIRFRPPRLPRPRPRPIIVPRP -0.394

Answer with reported shrunken log2 fold change of RRIRIRPPRLPRPRPRPNMKPRP -0.625

Answer with reported shrunken log2 fold change of RRIRIRPPRLPRPRPRPEISPRP -0.481

Answer with reported shrunken log2 fold change of RRIRSRPPRLPRPRPRPIKMPRP -0.47

Answer with reported shrunken log2 fold change of RRIRMRPPRLPRPRPRPPTHPRP 0.696

Answer with reported shrunken log2 fold change of RRIRRRPPRLPRPRPRPDMYPRP -0.315

Answer with reported shrunken log2 fold change of RRIRWRPPRLPRPRPRPCGEPRP 0.216

Answer with reported shrunken log2 fold change of RRIRERPPRLPRPRPRPYMNPRP -0.602

Answer with reported shrunken log2 fold change of RRIRMRPPRLPRPRPRPAHNPRP 0.421

Answer with reported shrunken log2 fold change of RRIRDRPPRLPRPRPRPGIQPRP -0.148

Answer with reported shrunken log2 fold change of RRIRHRPPRLPRPRPRPCQNPRP -0.0608

Answer with reported shrunken log2 fold change of RRIRSRPPRLPRPRPRPELQPRP 0.239

Answer with reported shrunken log2 fold change of RRIRARPPRLPRPRPRPPTAPRP 0.744

Answer with reported shrunken log2 fold change of RRIRGRPPRLPRPRPRPTGSPRP 0.864

Answer with reported shrunken log2 fold change of RRIRVRPPRLPRPRPRPVTPPRP 0.214
